Target: AhR (Mus musculus, UniProt P30561)
Sequence (P30561 10-848): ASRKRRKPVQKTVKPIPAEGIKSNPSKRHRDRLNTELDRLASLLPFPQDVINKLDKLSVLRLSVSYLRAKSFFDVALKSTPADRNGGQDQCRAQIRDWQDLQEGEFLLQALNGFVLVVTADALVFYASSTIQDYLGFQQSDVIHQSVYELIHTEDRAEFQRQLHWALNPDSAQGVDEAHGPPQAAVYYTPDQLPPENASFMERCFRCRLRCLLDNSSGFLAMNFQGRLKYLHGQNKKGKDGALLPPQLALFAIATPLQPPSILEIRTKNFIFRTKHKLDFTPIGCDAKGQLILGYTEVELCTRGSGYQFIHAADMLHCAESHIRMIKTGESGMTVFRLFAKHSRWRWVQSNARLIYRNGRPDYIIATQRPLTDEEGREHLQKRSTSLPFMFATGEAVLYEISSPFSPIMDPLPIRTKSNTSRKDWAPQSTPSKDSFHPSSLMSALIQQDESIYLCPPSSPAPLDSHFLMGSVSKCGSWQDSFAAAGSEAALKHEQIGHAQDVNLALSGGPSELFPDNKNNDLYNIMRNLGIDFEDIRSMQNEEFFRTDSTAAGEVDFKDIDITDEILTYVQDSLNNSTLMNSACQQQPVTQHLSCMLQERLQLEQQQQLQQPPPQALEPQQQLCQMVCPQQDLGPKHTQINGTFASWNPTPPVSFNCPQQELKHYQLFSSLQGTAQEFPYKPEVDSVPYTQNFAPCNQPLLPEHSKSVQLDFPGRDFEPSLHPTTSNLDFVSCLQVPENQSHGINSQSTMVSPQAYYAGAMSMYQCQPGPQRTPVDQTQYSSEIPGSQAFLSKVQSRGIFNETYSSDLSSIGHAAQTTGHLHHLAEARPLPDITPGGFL
pIC50: −log10 of the molar value.
Threshold check on pIC50: at or above 8 gives Criterion met, strictly below gives Criterion not met.

Could you tell me if the measured pIC50 of O=c1c2ccc(Cl)c3cccc(c32)c2nc3cc(Cl)ccc3n12 reaches 8 or more?
Criterion met

Does O=c1c2ccc3ccc4cccc5cc(c2c3c45)c2nc3ccc(Cl)cc3n12 have a reported pIC50 of at least 8?
Criterion not met

pIC50 >= 8 for O=C(O)c1ccc2c3c1cccc3c(=O)n1c3ccccc3nc21 ?
Criterion not met

Is pIC50 at least 8? Consider Clc1cc2c(cc1Cl)Oc1cc(Cl)c(Cl)cc1O2
Criterion met
